From: ChEMBL document CHEMBL3867453

System: Rhodococcus fascians
testName: Antibacterial activity against Rhodococcus fascians after 24 hrs by MTT based microdilution assay
Type: functional
runParameters: Rhodococcoides fascians
recordedEndpoint: MIC (µg/mL)

compound	MIC [µg/mL]
COc1ccc(C2COc3c(C/C=C(\C)CCC=C(C)C)c(O)cc(O)c3C2=O)c(O)c1O (racemic)	12.5

1: COc1ccc(C2COc3c(C/C=C(/C)CCC=C(C)C)c(O)cc(O)c3C2=O)c(O)c1O (racemic)
2: CN[C@@H]1[C@@H](O[C@H]2O[C@H](CO)[C@@H](N)[C@H](O)[C@H]2O)O[C@H]2C[C@@H](N)[C@@H](O[C@H]3[C@H](O)[C@@H](O)[C@H](N)C[C@@H]3N)O[C@@H]2[C@@H]1O
3: CC1(C)S[C@@H]2[C@H](NC(=O)[C@H](N)c3ccccc3)C(=O)N2[C@H]1C(=O)O [AMPICILLIN]
Prompt: Order by MIC, ascending. Your task in answering is to list the labels in the requested order.
Completion: 1, 3, 2
